The values you see were collected from PubChem BioAssay AID1963965.

System: 996289-038-R-J1-PDC spheroid viability
PROTOCOL DESCRIPTION: Anticancer human tumor 996289-038-R-J1-PDC patient-derived colon adenocarcinoma cell line growth inhibition [PI3K]
MEASUREMENT PARAMETERS: second compound 0.00316 µM; first compound 0.1 µM; active compounds read low; spheroids with HUVEC and MSC
The entries below are paired with their reported viability, T/C.
Write it as a number; the unit % goes unstated.

Report viability, T/C for CC(C)NCC(C(=O)N1CCN(c2ncnc3c2C(C)CC3O)CC1)c1ccc(Cl)cc1 (stereo not given) + CC(Nc1ccc2c(c1)OCCn1cc(N3C(=O)OCC3C(F)F)nc1-2)C(N)=O please.
95.3

Continuing:
Looking for the measured viability, T/C of C=CC(=O)N1CCN(c2nc(=O)n(-c3c(C)ccnc3C(C)C)c3nc(-c4c(O)cccc4F)c(F)cc23)C(C)C1 (stereo not given) + COc1c(OCCCN2CCOCC2)ccc2c3n(c(=NC(=O)c4cnc(N)nc4)nc12)CCN3 , can you help?
99.1

Give the measured viability, T/C of CC1(C)CCC(CN2CCN(c3ccc(C(=O)NS(=O)(=O)c4ccc(NCC5CCOCC5)c([N+](=O)[O-])c4)c(Oc4cnc5[nH]ccc5c4)c3)CC2)=C(c2ccc(Cl)cc2)C1 + CC(Nc1ccc2c(c1)OCCn1cc(N3C(=O)OCC3C(F)F)nc1-2)C(N)=O .
77.4

Entry CCCS(=O)(=O)Nc1ccc(F)c(C(=O)c2c[nH]c3ncc(-c4ccc(Cl)cc4)cc23)c1F + COc1c(OCCCN2CCOCC2)ccc2c3n(c(=NC(=O)c4cnc(N)nc4)nc12)CCN3 : reported viability, T/C = ?
81.6

Requested field: viability, T/C. Item: C#Cc1c(F)ccc2cc(O)cc(-c3ncc4c(N5CC6CCC(C5)N6)nc(OCC56CCCN5CC(F)C6)nc4c3F)c12 (stereo not given) + COc1c(OCCCN2CCOCC2)ccc2c3n(c(=NC(=O)c4cnc(N)nc4)nc12)CCN3
71.3

###

System: 996289-038-R-J1-PDC spheroid viability
PROTOCOL DESCRIPTION: Anticancer human tumor 996289-038-R-J1-PDC cell line growth inhibition [PI3K];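 note: luminescence used as a proxy for viable cell amount; spheroids exposed to compounds for seven days before viability read; percent viability relative to DMSO vehicle control as 100%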
MEASUREMENT PARAMETERS: second compound 10 µM; first compound 0.316 µM; active compounds read low; spheroids with HUVEC and MSC
Text: Combinatorial screen of targeted agents with the PI3K inhibitors inavolisib, alpelisib, duvelisib, and copanlisib in multi-cell type tumor spheroids A high-throughput screen of multi-cell type tumor spheroids was designed to identify active combinations of targeted small molecules and PI3K pathway inhibitors. […] Compounds. […] If the clinical Cmax for an agent had not been determined, the highest concentration tested was 10 microM. […]
Threshold 60%. viability, T/C below it: true. viability, T/C at it or above: false.

// below: answered compounds
viability, T/C strictly < 60% for this compound? C[C@@H](NC(=O)c1ncnc(N)c1Cl)c1ncc(C(=O)Nc2cc(C(F)(F)F)c(Cl)cn2)s1 + Cc1nc(NC(=O)N2CCCC2C(N)=O)sc1-c1ccnc(C(C)(C)C(F)(F)F)c1
true

Dear colleague, could you confirm whether viability, T/C of C=CC(=O)N1CCN(c2nc(=O)n(-c3c(C)ccnc3C(C)C)c3nc(-c4c(O)cccc4F)c(F)cc23)C(C)C1 (stereo unspecified) + CC(Nc1ncnc2nc[nH]c12)c1cc2cccc(Cl)c2c(=O)n1-c1ccccc1 falls below 60%? Thanks.
false

A record lists CC(Cn1ccc(-c2ccc(C#N)c(Cl)c2)n1)NC(=O)c1cc(C(C)O)[nH]n1 (stereo unspecified) + Cc1nc(NC(=O)N2CCCC2C(N)=O)sc1-c1ccnc(C(C)(C)C(F)(F)F)c1 . Is its viability, T/C below 60%?
true

Problem: For the compound Cn1ncc(Cl)c1-c1cc(C(=O)NC(CN)Cc2cccc(F)c2)sc1Cl (stereo unspecified) + Cc1nc(NC(=O)N2CCCC2C(N)=O)sc1-c1ccnc(C(C)(C)C(F)(F)F)c1 , is viability, T/C under 60%?
true

Say whether its viability, T/C is strictly beneath 60%. Entry: Cn1ncc(Cl)c1-c1cc(C(=O)NC(CN)Cc2cccc(F)c2)sc1Cl (stereo unspecified) + CC(Nc1ncnc2nc[nH]c12)c1cc2cccc(Cl)c2c(=O)n1-c1ccccc1
false

---
Criterion: viability, T/C strictly below 60%. Is it met by CC(C)NCC(C(=O)N1CCN(c2ncnc3c2C(C)CC3O)CC1)c1ccc(Cl)cc1 (stereo unspecified) + CC(Nc1ncnc2nc[nH]c12)c1cc2cccc(Cl)c2c(=O)n1-c1ccccc1 ?
false

In plain terms, does CC(C)NCC(C(=O)N1CCN(c2ncnc3c2C(C)CC3O)CC1)c1ccc(Cl)cc1 (stereo unspecified) + Cc1nc(NC(=O)N2CCCC2C(N)=O)sc1-c1ccnc(C(C)(C)C(F)(F)F)c1 come in under 60% for viability, T/C?
true

Is viability, T/C strictly under 60% for the entry Cn1nccc1Nc1nccc(-c2ccn(C(CO)c3ccc(Cl)c(F)c3)c(=O)c2)n1 (stereo unspecified) + CC(Nc1ncnc2nc[nH]c12)c1cc2cccc(Cl)c2c(=O)n1-c1ccccc1 ?
false

Does the reported viability, T/C of the following compound sit strictly below 60%? CCCS(=O)(=O)Nc1ccc(F)c(C(=O)c2c[nH]c3ncc(-c4ccc(Cl)cc4)cc23)c1F + CC(Nc1ncnc2nc[nH]c12)c1cc2cccc(Cl)c2c(=O)n1-c1ccccc1
false

Find out if reported viability, T/C for CC1(C)CCC(Nc2ncc(C(F)(F)F)c(-c3c[nH]c4c(P(C)(C)=O)c(C#N)ccc34)n2)CN1 (stereo unspecified) + Cc1nc(NC(=O)N2CCCC2C(N)=O)sc1-c1ccnc(C(C)(C)C(F)(F)F)c1 is less than 60%
true
